target: Tyrosine-protein kinase ABL1 (Homo sapiens, UniProt P00519); assay: Activation of full length human 6His-tagged c-Abl expressed in baculovirus expression system using abltide as substrate after 2 hrs by IMAP assay
Sequence (P00519 whole entry): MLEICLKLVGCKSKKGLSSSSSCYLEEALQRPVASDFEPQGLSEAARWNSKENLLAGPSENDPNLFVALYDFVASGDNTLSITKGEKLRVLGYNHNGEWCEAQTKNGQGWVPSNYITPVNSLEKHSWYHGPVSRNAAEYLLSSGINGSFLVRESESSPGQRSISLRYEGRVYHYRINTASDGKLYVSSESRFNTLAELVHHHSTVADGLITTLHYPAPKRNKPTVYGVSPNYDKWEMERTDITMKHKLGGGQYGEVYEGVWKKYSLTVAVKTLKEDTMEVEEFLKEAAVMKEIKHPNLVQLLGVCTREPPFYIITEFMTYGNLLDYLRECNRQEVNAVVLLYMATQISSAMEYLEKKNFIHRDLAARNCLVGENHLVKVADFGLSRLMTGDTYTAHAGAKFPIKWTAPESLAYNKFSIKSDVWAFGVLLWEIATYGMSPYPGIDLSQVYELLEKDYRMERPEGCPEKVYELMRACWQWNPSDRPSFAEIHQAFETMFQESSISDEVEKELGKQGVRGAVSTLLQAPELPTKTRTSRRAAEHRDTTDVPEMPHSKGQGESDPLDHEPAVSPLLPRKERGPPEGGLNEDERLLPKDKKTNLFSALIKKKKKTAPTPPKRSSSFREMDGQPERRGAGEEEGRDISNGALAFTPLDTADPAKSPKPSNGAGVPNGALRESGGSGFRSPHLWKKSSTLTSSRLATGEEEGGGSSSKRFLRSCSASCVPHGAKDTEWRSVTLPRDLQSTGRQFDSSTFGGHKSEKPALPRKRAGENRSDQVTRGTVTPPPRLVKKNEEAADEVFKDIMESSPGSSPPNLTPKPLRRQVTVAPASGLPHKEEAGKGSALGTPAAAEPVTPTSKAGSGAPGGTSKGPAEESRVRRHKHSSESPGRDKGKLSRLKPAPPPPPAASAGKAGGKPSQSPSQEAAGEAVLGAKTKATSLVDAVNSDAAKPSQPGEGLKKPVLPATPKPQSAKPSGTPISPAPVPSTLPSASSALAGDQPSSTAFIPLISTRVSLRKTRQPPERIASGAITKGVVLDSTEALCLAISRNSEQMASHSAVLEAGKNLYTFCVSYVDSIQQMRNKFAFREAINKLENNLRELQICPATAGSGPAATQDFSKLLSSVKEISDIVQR
PROPERTY_MEASURED: pEC50
The value called pEC50 is obtained by taking minus log10 of the concentration in mol/L.

// query pEC50 value for entry Cn1cnnc1SCC(=O)Nc1nc(-c2ccc(Cl)c(Cl)c2)cs1
5.00

----------
experiment: Terminal plasma concentration in CD1 mouse at 100 mg/kg, ip after 40 mins; assay type: ADME, organism-based; conditions: read-out: Cp(T)
PROPERTY_MEASURED: concentration at 40 min (µg/mL)
Number in µg/mL, nothing else.

Give the measured concentration at 40 min of N#CCCC(=O)NC1=NN(c2ccc(Cl)c(Cl)c2)CC1 .
15.6
